Test: 8-day repeat-dose study, tolerability (blood chemistry, hematology, adverse events) in tumor-bearing dogs
Format: in vivo, dog
Settings: Dog 5; Post: 30 min after last injection on day 8; 10 mg s.c. once daily for 8 days
Where a SMILES comes first, the peptide text is derived from it. [ ]: non-standard residue; d: D form. Hyp = O=C(O)[C@@H]1C[C@@H](O)CN1
Experimental Endpoint: Glucose (mg/dL)

{"Compound": "CC(C)[C@@H]1NC(=O)[C@@H]2C[C@@H](O)CN2C(=O)[C@H]([C@@H](C)O)NC(=O)[C@H](CCCCN)NC(=O)[C@H](CCC(=O)O)NC(=O)[C@H](CC(N)=O)NC(=O)CNC(=O)[C@@H]2C[C@@H](O)CN2C(=O)[C@H](CC(N)=O)NC1=O [AFPep] (cyclo(EKT[Hyp]VN[Hyp]GN))", "Readout Value": 88}
